Hey, just so you know, these numbers are from ChEMBL document CHEMBL5634119.

Listed next: entries and their corresponding pIC50.
# assay-target: Epidermal growth factor receptor (Homo sapiens, UniProt P00533, C797S/L858R/T790M)
# Sequence (P00533 25-1210 T790M/C797S/L858R limits assumed): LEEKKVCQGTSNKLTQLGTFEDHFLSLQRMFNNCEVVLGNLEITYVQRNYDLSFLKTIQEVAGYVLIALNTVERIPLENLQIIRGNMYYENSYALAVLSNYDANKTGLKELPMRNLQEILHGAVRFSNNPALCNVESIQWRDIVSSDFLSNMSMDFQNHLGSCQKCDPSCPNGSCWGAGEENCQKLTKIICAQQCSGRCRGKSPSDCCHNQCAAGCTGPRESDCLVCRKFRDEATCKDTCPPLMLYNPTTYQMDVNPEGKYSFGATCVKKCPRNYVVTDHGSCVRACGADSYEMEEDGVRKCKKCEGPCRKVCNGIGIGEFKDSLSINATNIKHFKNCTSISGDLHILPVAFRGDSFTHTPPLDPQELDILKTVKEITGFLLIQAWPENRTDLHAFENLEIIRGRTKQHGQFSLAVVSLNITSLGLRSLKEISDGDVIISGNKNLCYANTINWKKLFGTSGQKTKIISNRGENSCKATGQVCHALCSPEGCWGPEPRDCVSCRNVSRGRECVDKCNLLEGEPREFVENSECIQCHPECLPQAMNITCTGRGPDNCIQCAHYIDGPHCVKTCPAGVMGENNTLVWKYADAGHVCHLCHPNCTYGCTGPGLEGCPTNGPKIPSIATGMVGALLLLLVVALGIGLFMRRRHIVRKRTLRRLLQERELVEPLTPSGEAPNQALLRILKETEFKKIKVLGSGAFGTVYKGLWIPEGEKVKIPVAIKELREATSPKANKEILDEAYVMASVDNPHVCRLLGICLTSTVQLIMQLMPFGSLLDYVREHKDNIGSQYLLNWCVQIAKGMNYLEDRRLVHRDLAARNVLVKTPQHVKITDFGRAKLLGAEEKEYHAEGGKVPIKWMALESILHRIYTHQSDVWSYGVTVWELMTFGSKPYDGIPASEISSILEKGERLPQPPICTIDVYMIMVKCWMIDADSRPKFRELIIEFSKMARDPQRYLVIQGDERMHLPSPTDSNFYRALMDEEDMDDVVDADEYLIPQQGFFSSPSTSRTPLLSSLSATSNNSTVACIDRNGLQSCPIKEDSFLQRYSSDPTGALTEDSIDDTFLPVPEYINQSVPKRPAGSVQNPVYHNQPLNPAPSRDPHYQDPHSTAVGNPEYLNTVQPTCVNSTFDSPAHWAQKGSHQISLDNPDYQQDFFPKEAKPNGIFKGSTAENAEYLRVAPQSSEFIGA
# measurement-protocol: Inhibition of EGFR L858R/T790M/C797S triple mutant (unknown origin) in presence of ATP by FRET assay
Expect pIC50 as a plain number equal to -log10 of the molar concentration.

{"input-smiles": "CN1CCN(C2CCN(c3ccc(Nc4nc(Nc5ccccc5N(C)S(C)(=O)=O)c5cc[nH]c5n4)cc3F)CC2)CC1", "pIC50": 8.31}

response.value for CN1CCN(c2ccc(Nc3nc(Nc4ccccc4N(C)S(C)(=O)=O)c4cc[nH]c4n3)cc2F)CC1 (field: pIC50) = 7.69

response.value for CCN1CCN(C2CCN(c3ccc(Nc4nc(Nc5ccccc5N(C)S(C)(=O)=O)c5cc[nH]c5n4)cc3F)CC2)CC1 (field: pIC50) = 8.33

response.value for CCN1CCN(c2ccc(Nc3nc(Nc4ccccc4N(C)S(C)(=O)=O)c4cc[nH]c4n3)cc2F)CC1 (field: pIC50) = 7.90

----------
# measurement-protocol: Inhibition of AKT phosphorylation in human A-431 cells harboring wild type EGFR incubated for 6 hrs by Western blot analysis
# Format: cell-based
# assay-setup: A-431, 6 h
measure: pIC50
Expect pIC50 as a plain number equal to -log10 of the molar concentration.

Consider the following illustrative entries.
{"compound": "COc1cc(N2CCC(N3CCN(C)CC3)CC2)ccc1Nc1ncc(Cl)c(Nc2ccccc2P(C)(C)=O)n1 [BRIGATINIB]", "pIC50": 5.48}
{"compound": "CCN1CCN(c2ccc(Nc3nc(Nc4ccccc4N(C)S(C)(=O)=O)c4cc[nH]c4n3)cc2F)CC1", "pIC50": 5.66}

response.value for CCN1CCN(C2CCN(c3ccc(Nc4nc(Nc5ccccc5N(C)S(C)(=O)=O)c5cc[nH]c5n4)cc3F)CC2)CC1 (field: pIC50) = 5.74

----------
Listed next: entries and their corresponding IC50.
# assay-target: Epidermal growth factor receptor (Homo sapiens, UniProt P00533, C797S/EX19DEL/T790M)
# measurement-protocol: Inhibition of EGFR del19/T790M/C797S triple mutant (unknown origin) in presence of ATP by FRET assay
Reply numerically in nM, unit not repeated.

Consider the following illustrative entries.
{"input-smiles": "CCN1CCN(C2CCN(c3ccc(Nc4nc(Nc5ccccc5N(C)S(C)(=O)=O)c5cc[nH]c5n4)cc3F)CC2)CC1", "IC50 / nM": 4.2}
{"input-smiles": "CN1CCN(C2CCN(c3ccc(Nc4nc(Nc5ccccc5N(C)S(C)(=O)=O)c5cc[nH]c5n4)cc3F)CC2)CC1", "IC50 / nM": 4}
{"input-smiles": "CN1CCN(c2ccc(Nc3nc(Nc4ccccc4N(C)S(C)(=O)=O)c4cc[nH]c4n3)cc2F)CC1", "IC50 / nM": 4}

Now look at this entry.
IC50 of CCN1CCN(c2ccc(Nc3nc(Nc4ccccc4N(C)S(C)(=O)=O)c4cc[nH]c4n3)cc2F)CC1 , assay on Epidermal growth factor receptor (Homo sapiens, UniProt P00533, C797S/EX19DEL/T790M), is 9.2

----------
# assay-target: Epidermal growth factor receptor (Homo sapiens, UniProt P00533)
# Sequence (P00533 whole entry): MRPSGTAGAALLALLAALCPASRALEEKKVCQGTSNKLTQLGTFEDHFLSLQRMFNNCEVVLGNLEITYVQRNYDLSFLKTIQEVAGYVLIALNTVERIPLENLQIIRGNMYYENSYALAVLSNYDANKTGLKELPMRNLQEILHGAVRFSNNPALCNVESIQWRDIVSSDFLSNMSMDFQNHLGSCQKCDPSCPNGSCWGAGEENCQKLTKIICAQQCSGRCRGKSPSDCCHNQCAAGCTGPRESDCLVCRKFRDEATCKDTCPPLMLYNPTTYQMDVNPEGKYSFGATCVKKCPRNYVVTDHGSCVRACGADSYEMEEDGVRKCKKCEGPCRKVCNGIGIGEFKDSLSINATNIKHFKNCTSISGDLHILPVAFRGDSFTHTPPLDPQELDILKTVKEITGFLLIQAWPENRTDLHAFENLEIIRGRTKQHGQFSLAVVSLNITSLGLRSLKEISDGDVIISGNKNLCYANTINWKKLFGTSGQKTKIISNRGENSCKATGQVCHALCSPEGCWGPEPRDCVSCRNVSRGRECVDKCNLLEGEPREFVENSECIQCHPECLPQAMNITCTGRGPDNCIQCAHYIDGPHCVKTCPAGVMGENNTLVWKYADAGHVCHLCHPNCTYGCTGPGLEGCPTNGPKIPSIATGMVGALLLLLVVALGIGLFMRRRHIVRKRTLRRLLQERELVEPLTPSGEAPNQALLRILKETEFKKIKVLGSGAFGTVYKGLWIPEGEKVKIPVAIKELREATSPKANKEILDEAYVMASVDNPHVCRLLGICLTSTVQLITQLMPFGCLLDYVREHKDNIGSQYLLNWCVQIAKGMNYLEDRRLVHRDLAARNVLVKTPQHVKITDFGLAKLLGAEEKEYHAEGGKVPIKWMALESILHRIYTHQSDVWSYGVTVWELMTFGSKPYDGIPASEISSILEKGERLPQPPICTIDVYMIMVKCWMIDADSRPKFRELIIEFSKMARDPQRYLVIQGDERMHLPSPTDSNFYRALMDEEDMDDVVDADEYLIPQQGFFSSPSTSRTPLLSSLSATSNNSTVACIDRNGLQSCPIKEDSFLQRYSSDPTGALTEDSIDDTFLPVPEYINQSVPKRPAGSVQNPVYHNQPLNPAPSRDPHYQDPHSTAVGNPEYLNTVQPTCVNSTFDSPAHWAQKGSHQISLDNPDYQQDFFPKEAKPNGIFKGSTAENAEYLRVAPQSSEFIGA
# measurement-protocol: Inhibition of wild type EGFR (unknown origin) in presence of ATP by FRET assay
Listed next: entries and their corresponding IC50.
Reply numerically in µM, unit not repeated.

{"input-smiles": "CN1CCN(C2CCN(c3ccc(Nc4nc(Nc5ccccc5N(C)S(C)(=O)=O)c5cc[nH]c5n4)cc3F)CC2)CC1", "measure": "IC50", "data-value": 4.58}
{"input-smiles": "CCN1CCN(C2CCN(c3ccc(Nc4nc(Nc5ccccc5N(C)S(C)(=O)=O)c5cc[nH]c5n4)cc3F)CC2)CC1", "measure": "IC50", "data-value": 10.3}

Now look at this entry.
response.value for CN1CCN(c2ccc(Nc3nc(Nc4ccccc4N(C)S(C)(=O)=O)c4cc[nH]c4n3)cc2F)CC1 (field: IC50) = 1.53

----------
Listed next: entries and their corresponding Cmax.
# measurement-protocol: Cmax in mouse at 75 mg/kg, po measured upto 24 hrs by LC-MS/MS analysis
# Format: ADME, organism-based
# assay-setup: in vivo
Reply numerically in µg/mL, unit not repeated.

{"input-smiles": "CCN1CCN(C2CCN(c3ccc(Nc4nc(Nc5ccccc5N(C)S(C)(=O)=O)c5cc[nH]c5n4)cc3F)CC2)CC1", "measure": "Cmax", "data-value": 5.48}

Now look at this entry.
response.value for CCN1CCN(c2ccc(Nc3nc(Nc4ccccc4N(C)S(C)(=O)=O)c4cc[nH]c4n3)cc2F)CC1 (field: Cmax) = 6.03

----------
# measurement-protocol: Inhibition of wild type EGFR in mouse BAF3 cells assessed as reduction in cell proliferation incubated for 3 days by celltiter-glo assay
# Format: cell-based
# assay-setup: BaF3, 72 h
measure: pIC50
Expect pIC50 as a plain number equal to -log10 of the molar concentration.

Consider the following illustrative entries.
{"input-smiles": "CCS(=O)(=O)N(C)c1ccccc1Nc1nc(Nc2ccc(N3CCN(C)CC3)c(F)c2)nc2[nH]ccc12", "pIC50": 6.62}
{"input-smiles": "COc1cc(N2CCN(C)CC2)ccc1Nc1nc(Nc2ccccc2N(C)S(C)(=O)=O)c2cc[nH]c2n1", "pIC50": 5.50}
{"input-smiles": "CCN(c1ccccc1Nc1nc(Nc2ccc(N3CCN(C)CC3)c(F)c2)nc2[nH]ccc12)S(C)(=O)=O", "pIC50": 6.69}
{"input-smiles": "CN1CCN(c2ccc(Nc3nc(Nc4ccccc4NS(C)(=O)=O)c4cc[nH]c4n3)cc2F)CC1", "pIC50": 5.58}
{"input-smiles": "CCN1CCN(C2CCN(c3ccc(Nc4nc(Nc5ccccc5N(C)S(C)(=O)=O)c5cc[nH]c5n4)cc3F)CC2)CC1", "pIC50": 6.15}
{"input-smiles": "CN(c1ccccc1Nc1nc(Nc2ccc(N3CCN(C4CC4)CC3)c(F)c2)nc2[nH]ccc12)S(C)(=O)=O", "pIC50": 6.10}

response.value for CN1CCN(c2ccc(Nc3nc(Nc4ccccc4N(C)S(C)(=O)=O)c4cc[nH]c4n3)cc2)CC1 (field: pIC50) = 6.92

response.value for C=CC(=O)Nc1cc(Nc2nccc(-c3cn(C)c4ccccc34)n2)c(OC)cc1N(C)CCN(C)C (field: pIC50) = 7.87

----------
# measurement-protocol: Plasma protein binding in human assessed as unbound fraction measured after 6 hrs by rapid equilibrium dialysis based LC-MS/MS analysis
# Assay type: ADME, cell-free
measure: fraction unbound at 6 h

{"input-smiles": "CCN1CCN(c2ccc(Nc3nc(Nc4ccccc4N(C)S(C)(=O)=O)c4cc[nH]c4n3)cc2F)CC1", "fraction unbound at 6 h": 0.916}

Now look at this entry.
response.value for CCN1CCN(C2CCN(c3ccc(Nc4nc(Nc5ccccc5N(C)S(C)(=O)=O)c5cc[nH]c5n4)cc3F)CC2)CC1 (field: fraction unbound at 6 h) = 0.937

----------
Listed next: entries and their corresponding pIC50.
# measurement-protocol: Inhibition of wild type EGFR in mouse BAF3 cells assessed as reduction in cell proliferation incubated for 3 days by celltiter-glo assay
# Assay type: cell-based
# assay-setup: BaF3, 72 h
Expect pIC50 as a plain number equal to -log10 of the molar concentration.

{"input-smiles": "CN1CCN(c2ccc(Nc3nc(Nc4ccccc4N(C)S(C)(=O)=O)c4cc[nH]c4n3)cc2Cl)CC1", "pIC50": 7.32}
{"input-smiles": "CN1CCN(c2ccc(Nc3nc(Nc4ccccc4N(C)S(C)(=O)=O)c4cc[nH]c4n3)cc2F)CC1", "pIC50": 6.57}
{"input-smiles": "CC(C)N(c1ccccc1Nc1nc(Nc2ccc(N3CCN(C)CC3)c(F)c2)nc2[nH]ccc12)S(C)(=O)=O", "pIC50": 6.51}

response.value for CC(C)N1CCN(C2CCN(c3ccc(Nc4nc(Nc5ccccc5N(C)S(C)(=O)=O)c5cc[nH]c5n4)cc3F)CC2)CC1 (field: pIC50) = 6.21

response.value for CN(c1ccccc1Nc1nc(Nc2ccc(N3CCC(N4CCN(C5CC5)CC4)CC3)c(F)c2)nc2[nH]ccc12)S(C)(=O)=O (field: pIC50) = 6.09

response.value for COc1cc(Nc2nc(Nc3ccccc3N(C)S(C)(=O)=O)c3cc[nH]c3n2)ccc1N1CCN(C)CC1 (field: pIC50) = 7.38

response.value for CN1CCN(c2ccc(Nc3nc(Nc4ccccc4N(C)S(=O)(=O)C4CC4)c4cc[nH]c4n3)cc2F)CC1 (field: pIC50) = 6.67

response.value for CN(c1ccccc1Nc1nc(Nc2ccc(N3CCN(C(=O)OC(C)(C)C)CC3)c(F)c2)nc2[nH]ccc12)S(C)(=O)=O (field: pIC50) = 5.62

response.value for CN1CCN(c2ccc(Nc3nc(Nc4ccccc4N(C4CC4)S(C)(=O)=O)c4cc[nH]c4n3)cc2F)CC1 (field: pIC50) = 6.56

response.value for CCCN1CCN(c2ccc(Nc3nc(Nc4ccccc4N(C)S(C)(=O)=O)c4cc[nH]c4n3)cc2F)CC1 (field: pIC50) = 6.16

response.value for CCCN1CCN(C2CCN(c3ccc(Nc4nc(Nc5ccccc5N(C)S(C)(=O)=O)c5cc[nH]c5n4)cc3F)CC2)CC1 (field: pIC50) = 6.12

response.value for CC(C)N1CCN(c2ccc(Nc3nc(Nc4ccccc4N(C)S(C)(=O)=O)c4cc[nH]c4n3)cc2F)CC1 (field: pIC50) = 6.17
